B1: IKZF1 (parent)
chain: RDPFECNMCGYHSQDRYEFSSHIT

Variants of: B1
test-method-notes: protein stability index of a GFP-peptide fusion (GPS, HEK-293T) (PSI 1-6); higher = more stable;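 further: lentivirally expressed fusions sorted by FACS into six bins by GFP to DsRed ratio, PSI derived from sequencing read proportions per bin multiplied by bin number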
experimental-parameters: c terminus: a fixed tail appended
Each record here notes measured protein stability index.
Give the figure by itself; no unit, no explanation.

[
  {
    "mutation-name": "Y17H",
    "protein stability index": 2.81
  },
  {
    "mutation-name": "R1N",
    "protein stability index": 2.44
  },
  {
    "mutation-name": "D2W",
    "protein stability index": 1.92
  }
]

// query Look up protein stability index: `S21T`
// result 2.35

// query Look up protein stability index: `P3S`
// result 2.03

// query Look up protein stability index: `N7L`
// result 1.79

// query Look up protein stability index: `I23S`
// result 2.5

// query Look up protein stability index: `N7M`
// result 1.97

// query Look up protein stability index: `N7W`
// result 1.93

// query Look up protein stability index: `H22T`
// result 2.08

// query Look up protein stability index: `C6W`
// result 2.5

// query Look up protein stability index: `Y17T`
// result 1.89

// query Look up protein stability index: `S20C`
// result 3.08

// query Look up protein stability index: `Y17W`
// result 2.54

// query Look up protein stability index: `F19V`
// result 2.08

// query Look up protein stability index: `H12D`
// result 2.69

// query Look up protein stability index: `F4N`
// result 3.05

These entries and their values trace back to the supplement of paper PMC10567573.
